# assayTarget: human ether-à-go-go-related gene (hERG) potassium channel (human);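 further: peak tail current of the secondary pulse compared with the same well before compound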
# Sequence (Q12809 whole entry, looked up): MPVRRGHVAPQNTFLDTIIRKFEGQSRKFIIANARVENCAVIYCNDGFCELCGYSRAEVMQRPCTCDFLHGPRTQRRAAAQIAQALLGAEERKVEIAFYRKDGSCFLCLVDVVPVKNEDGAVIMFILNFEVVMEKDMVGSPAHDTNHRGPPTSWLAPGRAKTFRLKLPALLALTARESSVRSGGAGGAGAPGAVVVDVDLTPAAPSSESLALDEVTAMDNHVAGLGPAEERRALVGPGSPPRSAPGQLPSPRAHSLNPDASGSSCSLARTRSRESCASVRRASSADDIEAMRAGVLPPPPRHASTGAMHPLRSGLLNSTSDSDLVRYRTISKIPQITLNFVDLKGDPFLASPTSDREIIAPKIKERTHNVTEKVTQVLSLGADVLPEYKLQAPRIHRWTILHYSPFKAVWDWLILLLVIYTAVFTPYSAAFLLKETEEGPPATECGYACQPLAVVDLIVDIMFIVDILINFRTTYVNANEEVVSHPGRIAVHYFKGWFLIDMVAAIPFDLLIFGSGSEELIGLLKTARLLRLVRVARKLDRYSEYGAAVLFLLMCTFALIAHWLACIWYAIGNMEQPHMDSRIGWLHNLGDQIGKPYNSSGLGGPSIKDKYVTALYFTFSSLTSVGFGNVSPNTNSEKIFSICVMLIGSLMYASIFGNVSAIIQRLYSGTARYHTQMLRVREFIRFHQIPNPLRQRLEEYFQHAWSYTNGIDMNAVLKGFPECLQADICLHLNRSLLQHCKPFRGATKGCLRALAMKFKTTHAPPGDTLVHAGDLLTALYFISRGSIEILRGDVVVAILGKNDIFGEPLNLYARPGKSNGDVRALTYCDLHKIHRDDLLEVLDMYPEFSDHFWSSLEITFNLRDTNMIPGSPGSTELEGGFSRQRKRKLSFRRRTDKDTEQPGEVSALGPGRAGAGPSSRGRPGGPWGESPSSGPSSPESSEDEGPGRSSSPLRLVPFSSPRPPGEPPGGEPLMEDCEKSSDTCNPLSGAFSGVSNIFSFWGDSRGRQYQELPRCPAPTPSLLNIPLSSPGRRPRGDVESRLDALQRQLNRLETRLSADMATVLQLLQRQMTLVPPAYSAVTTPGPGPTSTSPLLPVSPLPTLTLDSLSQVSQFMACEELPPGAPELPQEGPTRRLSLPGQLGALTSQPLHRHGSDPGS
# testSummary: primary screen, population patch clamp on CHO cells stably expressing hERG; higher = less effect of the substance
Screen size: about 310,000 compounds; about 14,000 (4.5%) showed an effect of 50% or more. The effect is printed as a negative number. Only a selection was taken, and strong results are over-represented in it overall.
Task for the reader: assign each of the following compounds its reported hERG current change (%, negative = inhibition) at 10uM.
Numbers only, in %.

compound	experimentalValue
Cc1cc(Cn2nc(C(=O)NCc3cccc(C(F)(F)F)c3)cc2-c2ccccc2)on1	-57
O=C1OCCN/C1=C\C(=O)c1ccc(Cl)cc1	14.5
Cc1ccc(-n2c(CC#N)n[nH]c2=S)c(C)c1	3.3

Fill in hERG current change (%, negative = inhibition) at 10uM for each of the 7 compounds listed.
1. COc1ccc(NC(=O)CSc2ccc3nnc(-c4cccnc4)n3n2)c(OC)c1
2. Cc1cc(=O)[nH]c(SCC(=O)N(CCC#N)c2ccccc2)c1C#N
3. CCOCCCNC(=S)N1C2CCC1CC(NC(=O)NC1CCCCC1)C2 (stereo not shown)
4. Cc1cc(Cn2nc(C(=O)NCc3cccc(Br)c3)cc2-c2ccccc2)on1
5. NC(=O)c1nc(-c2ccco2)nc2c1[nH]c(=O)n2-c1ccc(Cl)c(Cl)c1
6. COc1ccc(OC)c(NC(=O)CSc2ccc(-c3cccnc3)nn2)c1
7. Cc1cc2cc(CN(Cc3ccc4c(c3)OCO4)C(=O)c3ccco3)c(=O)[nH]c2cc1C

Output:
[-32.4, 15.3, 1.88, -20.3, -9.13, -17.6, -25]

Where do these numbers come from? They come from paper PMC4336329.
